# System: DLD-1
# MEASUREMENT_PROTOCOL: NCI tumour cell line growth inhibition, 48 h
Active and inactive are the calls of the source. No stated cut-off is given here; in the data, active = GI50 up to about 1.1 µM and inactive = higher.
PROPERTY_NAME: GI50

Here is how some compounds turned out for GI50.
[
  {
    "COMPOUND": "NC(=O)/N=C1/CCC2C3CCCC2C13",
    "GI50": "> 100 µM (inactive)"
  },
  {
    "COMPOUND": "C[N+](C)(C)CC(=O)NC(=O)N/N=C\\C(CC#N)CN(Cc1ccccc1)Cc1ccccc1 (stereo not drawn)",
    "GI50": "> 100 µM (inactive)"
  },
  {
    "COMPOUND": "CN(C)/N=N/c1ccccc1",
    "GI50": "> 100 µM (inactive)"
  },
  {
    "COMPOUND": "Cn1c(=O)c(C#N)c(O)c2cc3ccccc3nc21",
    "GI50": "> 100 µM (inactive)"
  },
  {
    "COMPOUND": "CC(=O)OC1CC2CCN3C(=O)c4cc5c(cc4[C@H](C1OC(C)=O)C23)OCO5 (stereo partly drawn)",
    "GI50": "> 100 µM (inactive)"
  },
  {
    "COMPOUND": "O=C(N/C=C1\\C(=O)Oc2ccccc2C1=O)Nc1ccccc1",
    "GI50": "42.6 µM (inactive)"
  },
  {
    "COMPOUND": "C=C(CN(C)C)C(=O)c1ccccc1C",
    "GI50": "20.9 µM (inactive)"
  },
  {
    "COMPOUND": "COc1ccccc1/C=C1\\CCC(CCN(C)C)(C2=CCCC2)C1=O (stereo not drawn)",
    "GI50": "16.8 µM (inactive)"
  },
  {
    "COMPOUND": "CC1CC(C[N+](=O)[O-])CC2(C1)OCCO2 (stereo not drawn)",
    "GI50": "> 100 µM (inactive)"
  },
  {
    "COMPOUND": "CN(C)C=C1C(=O)N(C)C(=O)N(C)C1=O",
    "GI50": "> 100 µM (inactive)"
  }
]

Which GI50 value belongs to CCOC(=O)C12CCCC1(O)N(NC(N)=O)C(C)=C2C(=O)OC (stereo not drawn) ?
> 100 µM (inactive)

Another: O=C1/C(=C/c2ccc(Cl)cc2)CCC1CNc1ccc(Cl)cc1 (stereo not drawn)
1.68 µM (inactive)

Same for `CC[C@H]1CC(=O)c2c(cc3c(c2O)C(=O)c2ccccc2C3=O)[C@@]1(C#N)C(=O)OC(C)(C)C`
2.33 µM (inactive)

Moving on to OC(C1CO1)C(O)C1CO1 (stereo not drawn)
> 150 µM (inactive)

---

# Test system: CAKI-1
# MEASUREMENT_PROTOCOL: NCI tumour cell line growth inhibition, 48 h
Active and inactive are the calls of the source. Cut-off read from the data, not from the text of the source: active = GI50 up to about 1.1 µM and inactive = higher.
PROPERTY_NAME: GI50

Field: example entries. Status: answers known.
[
  {
    "SMILES_ENTRY": "O=C1[C@@H]2C(c3ccccc3Br)=NO[C@@H]2C(=O)N1c1ccc(Cc2ccc(N3C(=O)[C@H]4C(c5ccccc5Br)=NO[C@H]4C3=O)cc2)cc1",
    "GI50": "> 100 µM (inactive)"
  },
  {
    "SMILES_ENTRY": "Cn1c(=O)c(C#N)c(O)c2cc3ccccc3nc21",
    "GI50": "> 100 µM (inactive)"
  },
  {
    "SMILES_ENTRY": "CCOC(=O)c1ccc(/N=C/c2ccc(N(CCC#N)S(=O)(=O)c3ccccc3)cc2C)cc1",
    "GI50": "39.4 µM (inactive)"
  }
]

Please look up its GI50: `CCn1c(C)nn2c(=O)c3ccccc3nc2c1=O`
> 100 µM (inactive)

Consider next the compound `Cc1c(N/C=C(\C#N)C(=O)c2ccc(Cl)cc2)c(=O)n(-c2ccccc2)n1C` in the same way.
> 100 µM (inactive)
